The measured values listed here are drawn from patent US20120244120A1.

target: UniProt:P08631; assay: HCK enzyme assay (Z'-LYTE FRET); type: biochemical; conditions: 2 hr pre-incubation, ATP 15 μM
Endpoint: IC50

Lookup result for Cc1ccc(-n2nc(C(C)(C)C)cc2NC(=O)Nc2ccc(OCc3ccnc(NC(=O)C[S+](C)[O-])c3)c3ccccc23)cc1 (stereo not shown) [Example 20] ; measured IC50: 176 nM

====

# key: entry, value: IC50
target: p38 MAPKα (MAPK14) (Homo sapiens, UniProt Q16539); experiment: p38α enzyme assay (Z'-LYTE FRET, via MAPKAP-K2 activation); format: biochemical; details: 2 hr pre-incubation, ATP 10 μM
Sequence (Q16539 whole entry): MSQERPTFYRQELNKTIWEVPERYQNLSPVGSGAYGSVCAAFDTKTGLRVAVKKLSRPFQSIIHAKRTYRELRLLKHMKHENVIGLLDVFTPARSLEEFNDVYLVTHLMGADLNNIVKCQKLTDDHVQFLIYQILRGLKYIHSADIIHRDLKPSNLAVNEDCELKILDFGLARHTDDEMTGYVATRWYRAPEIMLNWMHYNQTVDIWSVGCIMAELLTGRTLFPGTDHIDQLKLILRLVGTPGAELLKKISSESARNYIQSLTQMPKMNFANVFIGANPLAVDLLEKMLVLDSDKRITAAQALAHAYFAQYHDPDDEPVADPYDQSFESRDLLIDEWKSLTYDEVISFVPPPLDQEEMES
State just the number; it will be interpreted in nM.

>>> print(df.to_string())
                                smiles_text  endpoint  quantity_unit  quantitative_result
0  Cc1ccc(-n2nc(C(C)(C)C)cc2NC(=O)Nc2ccc(OCc3ccnc(NC(=O)CS(=O)(=O)CCN4CCOCC4)c3)c3ccccc23)cc1      IC50             nM                    1
1  Cc1ccc(-n2nc(C(C)(C)C)cc2NC(=O)Nc2ccc(OCc3ccnc(NC(=O)CCS(C)(=O)=O)c3)c3ccccc23)cc1      IC50             nM                  2.7
2  CNC(=O)Nc1cc(COc2ccc(NC(=O)Nc3cc(C(C)(C)C)nn3-c3ccc(C)cc3)c3ccccc23)ccn1      IC50             nM                  2.8
3  COCC(=O)Nc1cc(COc2ccc(NC(=O)Nc3cc(C(C)(C)C)nn3-c3ccc(CO)cc3)c3ccccc23)ccn1      IC50             nM                    5

Next, consider the following compound.
Query Cc1ccc(-n2nc(C(C)(C)C)cc2NC(=O)Nc2ccc(OCc3ccnc(NC(=O)CCCN(C)C)c3)c3ccccc23)cc1 yields IC50 of 10.3

====

# IC50 per record follows
biological target: HCK enzyme (Homo sapiens, UniProt P08631); assay: HCK enzyme assay (Z'-LYTE FRET); type: biochemical; settings: 2 hr pre-incubation, ATP 15 μM
Sequence (P08631 22-526): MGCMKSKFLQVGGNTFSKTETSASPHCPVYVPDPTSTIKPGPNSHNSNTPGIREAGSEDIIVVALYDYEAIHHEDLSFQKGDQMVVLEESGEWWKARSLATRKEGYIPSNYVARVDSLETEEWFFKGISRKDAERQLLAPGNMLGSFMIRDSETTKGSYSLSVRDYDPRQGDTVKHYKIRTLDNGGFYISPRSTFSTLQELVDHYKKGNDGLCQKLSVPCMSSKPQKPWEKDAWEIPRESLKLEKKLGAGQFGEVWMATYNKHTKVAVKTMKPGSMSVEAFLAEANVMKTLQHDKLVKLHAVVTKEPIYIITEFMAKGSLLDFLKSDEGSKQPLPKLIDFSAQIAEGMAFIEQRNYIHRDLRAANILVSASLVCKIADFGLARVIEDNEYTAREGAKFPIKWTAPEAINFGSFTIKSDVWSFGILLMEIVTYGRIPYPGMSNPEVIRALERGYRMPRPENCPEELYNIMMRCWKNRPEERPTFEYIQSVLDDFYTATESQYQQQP
Reply with the number and its unit after it.

Reference set, count: 2
>>> df
                                   compound  result
0  Cc1ccc(-n2nc(C(C)(C)C)cc2NC(=O)Nc2ccc(OCc3ccnc(NC(=O)CCCN(C)C)c3)c3ccccc23)cc1 [Example 16]   20 nM
1  COCC(=O)Nc1cc(COc2ccc(NC(=O)Nc3cc(C(C)(C)C)nn3-c3ccc(CO)cc3)c3ccccc23)ccn1 [Example 49]   24 nM

Kindly review the next compound as well.
Form field IC50, entry Cc1ccc(-n2nc(C(C)(C)C)cc2NC(=O)Nc2ccc(OCc3ccnc(NC(=O)CCS(C)(=O)=O)c3)c3ccccc23)cc1 [Example 17] : 60 nM
